# Test system: A498 renal
# Test details: NCI tumour cell line growth inhibition, 48 h
Where TGI equals or exceeds 6 µM, the correct label is MET; where it does not, the label is NOT MET.

INSERT INTO assay_data (compound, target_entity, class_label) VALUES
  ('COc1cc(C2c3cc4c(cc3[C@@H](Nc3ccc([N+](=O)[O-])cc3)C3COC(=O)[C@H]23)OCO4)cc(OC)c1O (stereo partly specified)', 'A498 renal', 'NOT MET'),
  ('COc1cccc(/C=C2\SC(=S)N(/C=C3\C(=O)Oc4ccccc4C3=O)C2=O)c1O', 'A498 renal', 'MET'),
  ('CCOC(=O)c1csc(C(CSCc2ccc(OC)cc2)N2C(=O)c3ccccc3C2=O)n1 (stereo unspecified)', 'A498 renal', 'MET'),
  ('O=C1C=C(NCC(c2ccccc2)c2ccccc2)C(=O)c2ncccc21', 'A498 renal', 'MET'),
  ('Cc1ccc2c(c1)C=CC1(O2)N(c2ccccc2)C(=S)OC1(C)C (stereo unspecified)', 'A498 renal', 'MET'),
  ('OC(CN1CCCC2CCCCC21)c1cc2ccccc2c2ccccc12 (stereo unspecified)', 'A498 renal', 'NOT MET'),
  ('CSc1ccc(NC(=O)Nc2cc(C)ccn2)cc1', 'A498 renal', 'MET'),
  ('Cc1cc(-c2nc3n(c2/C=N/N=C(N)N)CCS3)c(C)s1', 'A498 renal', 'MET'),
  ('CCOC(=O)[C@@H]1ON2O[C@@H](OC3CCCCC3c3ccccc3)C[C@H]3OC(=O)[C@@H]1C32 (stereo partly specified)', 'A498 renal', 'MET'),
  ('CN(C)CC1C(=O)O[C@H]2[C@H]1CC/C(COC(=O)NCc1ccc(Cn3c(=O)sn(CCCI)c3=O)cc1)=C\CC[C@@]1(C)O[C@@H]21 (stereo partly specified)', 'A498 renal', 'MET'),
  ('COC(=O)c1sc2c(c1C(=O)OC)C(=NC(C)(C)C)SC2=NC(C)(C)C', 'A498 renal', 'MET'),
  ('NC(Cc1cccnn1)C(=O)O (stereo unspecified)', 'A498 renal', 'MET'),
  ('CC(C)c1[nH]nc2c(NCc3ccc(-c4ccccn4)cc3)nc(SCCN(C)C)nc12', 'A498 renal', 'NOT MET'),
  ('O=C(NCCCl)Nc1ccccc1', 'A498 renal', 'MET'),
  ('CC1CC(=NC2CCCCC2)Nc2ccccc2N1Cc1ccccc1 (stereo unspecified)', 'A498 renal', 'MET'),
  ('Cc1ccc2c(n1)NC(=O)C(Cc1ccccc1)(N=[N+]=[N-])C2=O (stereo unspecified)', 'A498 renal', 'MET'),
  ('CCCS(=O)c1nc(COC(=O)NC)c(COC(=O)NC)n1C (stereo unspecified)', 'A498 renal', 'MET'),
  ('Cc1ccnc2c(NC(C)CCCN)cc(O)c(O)c12 (stereo unspecified)', 'A498 renal', 'MET'),
  ('CN(CCCN1C(=O)c2cccc3cc([N+](=O)[O-])cc(c23)C1=O)CCN(C)CCCN1C(=O)c2cccc3cc([N+](=O)[O-])cc(c23)C1=O', 'A498 renal', 'MET'),
  ('C=CCc1oc(C)nc1CCCC', 'A498 renal', 'MET'),
  ('COc1c(B(O)O)cccc1-c1nc2ccc3[nH]ncc3c2c2c1CCCC2', 'A498 renal', 'NOT MET');

====

# System: A549 NSCLC
# Test details: NCI tumour cell line growth inhibition, 48 h
Parameter measured: TGI

INSERT INTO assay_data (molecule, result_value) VALUES
  ('C=C1C2CC3CCC2C(OC(=O)c2ccccc2C(=O)O)C13 (stereo not given)', '> 100 µM'),
  ('COc1cccc(N2CCN(c3ncnc4cc[nH]c34)CC2)c1', '> 100 µM'),
  ('c1ccc2c(c1)SP1Sc3ccccc3P21 (stereo not given)', '> 100 µM'),
  ('COC(=O)c1sc2c(c1C(=O)OC)C(=NC(C)(C)C)SC2=NC(C)(C)C', '41.8 µM'),
  ('O=C(Cn1c2c(c3ccccc31)CCCC2)N1CCCCC1', '> 100 µM');

====

Form field: TGI (one value per entry).
# System: DMS 273 small cell lung
# Test details: NCI tumour cell line growth inhibition, 48 h
Parameter measured: TGI (µM)

INSERT INTO measurements (structure_as_smiles, target_entity, cmp, result_value) VALUES
  ('Nn1c(-c2cccc(Cl)c2)nc2ccccc2c1=O', 'DMS 273 small cell lung', '>', 100),
  ('COc1cc2c3cc1Oc1c(OC)c(OC)cc4c1[C@@H](Cc1ccc(O)c(c1)Oc1ccc(cc1)C[C@@H]3N(C)CC2)N(C)CC4', 'DMS 273 small cell lung', '=', 34),
  ('CCC[CH2][Sn]([CH2]CCC)([O]C(=O)c1cc(F)ccc1F)[O]C(=O)c1cc(F)ccc1F', 'DMS 273 small cell lung', '=', 2.45),
  ('O=C1C(Cl)=C(Cl)C(=O)N1c1ccc(F)cc1', 'DMS 273 small cell lung', '>', 62);

====

Form field: TGI (one value per entry).
# Tested on: HS 578T breast
# Test details: NCI tumour cell line growth inhibition, 48 h
Parameter measured: TGI

INSERT INTO results (molecule, parameter_measured, result_value) VALUES
  ('O=C(Cn1c2c(c3ccccc31)CCCC2)N1CCCCC1', 'TGI', '> 100 µM'),
  ('Cc1cc(N(CCC#N)CCC#N)ccc1/C=C(\NC(=O)/C=C/c1ccccc1)C(=O)Nc1ccc(Cl)cc1', 'TGI', '> 100 µM'),
  ('CC(C)(C)n1c(=O)n(-c2ccccc2)n(C(C)(C)C)c1=O', 'TGI', '> 100 µM'),
  ('COC1(OC)N=C(N)C2(C#N)C(C)=C3NCN(C)N=C3C12C#N (stereo unspecified)', 'TGI', '> 100 µM'),
  ('Cc1cc(Cl)nc(N(CCCNc2ccnc3cc(Cl)ccc23)Cc2cccs2)n1', 'TGI', '12.9 µM'),
  ('CC(C)[C@@H]1CC[C@@H](C)C[C@H]1OC(=O)/C=C1\C(C(=O)O[C@@H]2C[C@H](C)CC[C@H]2C(C)C)[C@H]2C=C[C@@H]1O2 (stereo partly specified)', 'TGI', '> 100 µM'),
  ('COc1cc2c3c(n([C@@H]4CCOC4)c(=O)c2cc1OC)-c1cc2c(cc1C3=O)OCO2', 'TGI', '> 100 µM'),
  ('CC1(C)OC[C@H](COCOP2(=O)Oc3ccc4ccccc4c3-c3c(ccc4ccccc34)O2)O1', 'TGI', '> 100 µM'),
  ('C=C1C2CC3CCC2C(OC(=O)c2ccccc2C(=O)O)C13 (stereo unspecified)', 'TGI', '> 100 µM'),
  ('O=C(NCCCl)Nc1ccccc1', 'TGI', '> 100 µM'),
  ('Cc1ccc(-c2c3c(nn2-c2ccc(S(=O)(=O)NC(=O)NC4CCCCC4)cc2)-c2ccccc2C3)cc1', 'TGI', '60.4 µM'),
  ('C=C1C(=O)O[C@@H]2CC(CO)=C([C@@H](C)CCCO)[C@@H](OC(=O)/C(C)=C\C)[C@H]12', 'TGI', '> 100 µM'),
  ('Nc1n[nH]c2c(C(=O)Nc3ccc(Cl)cc3)c(N)n(N)c(=O)c12', 'TGI', '> 100 µM'),
  ('Cc1ccc(Nc2nc(=O)c3c([nH]c4ccccc43)s2)cc1', 'TGI', '75 µM'),
  ('NNC(=O)c1cc([N+](=O)[O-])ccc1NC(=O)C12CC3CC(CC(C3)C1)C2', 'TGI', '28.8 µM'),
  ('C[C@@H](CS[As](C)C)C(=O)N1CCC[C@H]1C(=O)O', 'TGI', '0.796 µM'),
  ('O=c1oc2ccccc2c(O)c1C(c1cccc(C(c2c(O)c3ccccc3oc2=O)c2c(O)c3ccccc3oc2=O)c1)c1c(O)c2ccccc2oc1=O', 'TGI', '> 100 µM'),
  ('Cc1ccc(C)n2c1nc1cc3ccccc3cc12', 'TGI', '> 100 µM'),
  ('CC(C)(C)C(=O)c1c(C(F)(F)F)n([O-])c2cc(Cl)c(Cl)cc2[n+]1=O', 'TGI', '0.554 µM'),
  ('CC(C)(O)CCc1cccc(C(=O)c2cnn(-c3ccc(F)cc3)c2N)c1', 'TGI', '> 25 µM'),
  ('Cc1cc2c(nn1)CCc1c-2no[n+]1[O-]', 'TGI', '> 100 µM'),
  ('O=C(Cn1c(C(=O)/C=C/c2ccc(Cl)cc2)nc2ccccc21)c1ccc(Cl)cc1', 'TGI', '29.1 µM'),
  ('CN(C)c1cc2c(Nc3ccc4c(cnn4Cc4ccccc4)c3)ncnc2cn1', 'TGI', '> 25 µM'),
  ('C[C@@]1(C(=O)O)CCC[C@]2(C)C1CC[C@]13C[C@@](O)(CO)[C@](O)(CC[C@]12O)C3 (stereo partly specified)', 'TGI', '> 100 µM'),
  ('COc1ccc(C[C@@H](C(=O)O[C@H](C)[C@H](NC(=O)[C@@H](CC(C)C)N(C)C(=O)C2CCCN2C(=O)[C@H](C)O)C(=O)N2CCCCNC(=O)[C@@H](C)C(=O)[C@H](C(C)C)OC(=O)C[C@H](O)[C@H]2CC(C)C)N(C)C(C)=O)cc1 (stereo partly specified)', 'TGI', '34.8 µM'),
  ('O=CC(O)C(O)C1OC(=O)c2cc(O)c(O)c(O)c2C2=C(O)C(O)=C3OC(=O)c4c(c(O)c(O)c5c4C3C2C(=O)O5)-c2c(cc(O)c(O)c2O)C(=O)OCC1O (stereo unspecified)', 'TGI', '> 100 µM'),
  ('CN1C(=O)[C@H](c2c[nH]c3ccccc23)[C@H](c2c[nH]c3ccccc23)C1=O', 'TGI', '> 86.3 µM'),
  ('O=c1[nH]nc(-c2ccccc2)n1-c1cccc([N+](=O)[O-])c1', 'TGI', '> 100 µM'),
  ('COc1cc(NCCC(=O)O)c2ncccc2c1', 'TGI', '> 100 µM'),
  ('O=C(N=Nc1c(Cl)c(O)c2ccccc2c1O)C(=O)Nc1cccc(C(F)(F)F)c1', 'TGI', '8.6 µM'),
  ('O=C1C(Cl)=C(Nc2cc(Cl)ccc2O)C(=O)N1Cc1ccccc1', 'TGI', '49.6 µM');
